Species on record: Cavia porcellus
Experiment: Effect on guinea pig T cell proliferation was tested by measuring the incorporation of [3H]-thymidine uptake at the concentration of 0 uM
Type: functional
metric_name: Activity

Query: I'd like to know its Activity. The compound in question is COCC1OC(SC/C=C/c2ccccc2)C(O)C(O)C1O (centres undefined)
Reply: 88 Δcpm x10e-3

Query: I'd like to know its Activity. The compound in question is OCC1OC(SC/C=C/c2ccccc2)C(O)C(O)C1O (stereo in doubt; 2)
Reply: 82.4 Δcpm x10e-3

Query: I'd like to know its Activity. The compound in question is CC(=O)NCC1OC(SC/C=C/c2ccccc2)C(O)C(O)C1O (centres undefined)
Reply: 79.8 Δcpm x10e-3

Query: I'd like to know its Activity. The compound in question is CC1OC(SC/C=C/c2ccccc2)C(O)C(O)C1O (stereo in doubt; 21)
Reply: 89.1 Δcpm x10e-3

====

Species on record: Cavia porcellus
Assay: Effect on guinea pig T cell proliferation was tested by measuring the incorporation of [3H]thymidine uptake at the concentration of 10 uM
Type: functional
metric_name: Activity

Query: I'd like to know its Activity. The molecule in question is CC(=O)NCC1OC(SC/C=C/c2ccccc2)C(O)C(O)C1O (stereo unspecified)
Reply: 70.7 Δcpm x10e-3

Query: I'd like to know its Activity. The molecule in question is COCC1OC(SC/C=C/c2ccccc2)C(O)C(O)C1O (stereo unspecified)
Reply: 97 Δcpm x10e-3

Query: I'd like to know its Activity. The molecule in question is CCCC(=O)NCC1OC(SC/C=C/c2ccccc2)C(O)C(O)C1O (stereo unspecified)
Reply: 68.4 Δcpm x10e-3

Query: I'd like to know its Activity. The molecule in question is CC1OC(SC/C=C/c2ccccc2)C(O)C(O)C1O (stereo in doubt; 21)
Reply: 86.5 Δcpm x10e-3

Query: I'd like to know its Activity. The molecule in question is NCC1OC(SC/C=C/c2ccccc2)C(O)C(O)C1O (stereo unspecified)
Reply: 120 Δcpm x10e-3

Query: I'd like to know its Activity. The molecule in question is O=C(CCCCC1CCSS1)NCC1OC(SC/C=C/c2ccccc2)C(O)C(O)C1O (stereo unspecified)
Reply: 75.2 Δcpm x10e-3

Query: I'd like to know its Activity. The molecule in question is OCC1OC(SC/C=C/c2ccccc2)C(O)C(O)C1O (stereo in doubt; 2)
Reply: 95.9 Δcpm x10e-3

Query: I'd like to know its Activity. The molecule in question is OCC1OC(SCCCc2ccccc2)C(O)C(O)C1O (stereo unspecified)
Reply: 70.3 Δcpm x10e-3

Query: I'd like to know its Activity. The molecule in question is OCC1OC(SC/C=C/c2ccccc2)C(O)C(O)C1O (stereo in doubt; 3)
Reply: 75.3 Δcpm x10e-3

Query: I'd like to know its Activity. The molecule in question is [N-]=[N+]=NCC1OC(SC/C=C/c2ccccc2)C(O)C(O)C1O (stereo unspecified)
Reply: 21 Δcpm x10e-3

Query: I'd like to know its Activity. The molecule in question is CC1OC(SC/C=C/c2ccccc2)C(O)C(O)C1O (stereo in doubt; 4)
Reply: 93.6 Δcpm x10e-3

====

Assignment: determine reported Activity for the given compounds.
Species: Cavia porcellus
Experiment: Effect on guinea pig T cell proliferation was tested by measuring the incorporation of [3H]-thymidine uptake at the concentration of 0 uM
Assay type: functional

Query: I'd like to know its Activity. The compound in question is CC1OC(SC/C=C/c2ccccc2)C(O)C(O)C1O (stereo in doubt; 4)
Reply: 72.8 Δcpm x10e-3

Query: I'd like to know its Activity. The compound in question is CC1OC(SC/C=C/c2ccccc2)C(O)C(O)C1O (stereo in doubt; 6)
Reply: 93.5 Δcpm x10e-3

Query: I'd like to know its Activity. The compound in question is NCC1OC(SC/C=C/c2ccccc2)C(O)C(O)C1O (stereo not given)
Reply: 81 Δcpm x10e-3

Query: I'd like to know its Activity. The compound in question is [N-]=[N+]=NCC1OC(SC/C=C/c2ccccc2)C(O)C(O)C1O (stereo not given)
Reply: 33.5 Δcpm x10e-3

Query: I'd like to know its Activity. The compound in question is OCC1OC(SC/C=C/c2ccccc2)C(O)C(O)C1O (stereo in doubt; 3)
Reply: 80.3 Δcpm x10e-3

Query: I'd like to know its Activity. The compound in question is OCC1OC(SCCCc2ccccc2)C(O)C(O)C1O (stereo not given)
Reply: 72.8 Δcpm x10e-3

Query: I'd like to know its Activity. The compound in question is OCC1OC(OCC2OC(SCC=Cc3ccccc3)C(O)C(O)C2O)C(O)C(O)C1O (stereo not given)
Reply: 86.9 Δcpm x10e-3

Query: I'd like to know its Activity. The compound in question is CC1OC(SC/C=C/c2ccccc2)C(O)C(O)C1O (stereo in doubt; 5)
Reply: 147 Δcpm x10e-3

Query: I'd like to know its Activity. The compound in question is CCCC(=O)NCC1OC(SC/C=C/c2ccccc2)C(O)C(O)C1O (stereo not given)
Reply: 85.8 Δcpm x10e-3

Query: I'd like to know its Activity. The compound in question is O=C(CCCCC1CCSS1)NCC1OC(SC/C=C/c2ccccc2)C(O)C(O)C1O (stereo not given)
Reply: 93.2 Δcpm x10e-3

====

Organism: Cavia porcellus
Assay: Effect on guinea pig T cell proliferation was tested by measuring the incorporation of [3H]thymidine uptake at the concentration of 10 uM
Format: functional
metric_name: Activity

Query: I'd like to know its Activity. The compound in question is OCC1OC(OCC2OC(SCC=Cc3ccccc3)C(O)C(O)C2O)C(O)C(O)C1O (stereo not drawn)
Reply: 64.2 Δcpm x10e-3

Query: I'd like to know its Activity. The compound in question is CC1OC(SC/C=C/c2ccccc2)C(O)C(O)C1O (stereo in doubt; 5)
Reply: 144 Δcpm x10e-3

Query: I'd like to know its Activity. The compound in question is CC1OC(SC/C=C/c2ccccc2)C(O)C(O)C1O (stereo in doubt; 6)
Reply: 115 Δcpm x10e-3

Data provenance: ChEMBL document CHEMBL1123901
